test system: CASKI; assay: Primary qHTS to identify gynecologic anti-cancer compounds using libraries of approved drugs and bioactive compounds (AID 1345084); conditions: Gynecologic cancer cell panel viability, ATPlite luminescence, 48 h; series mostly up to 57.5 µM; note: % is set by controls: 0 for no effect and ±100 for the full control effect; nearly all actives have a fitted effect of over 55% in size
Records with an inconclusive call do not appear. Calls of active or inactive are those of the source. Calls come from the whole dose curve; as a rule, active = well fitted cell-killing curve with a large enough effect; inconclusive = small, poorly fitted or top-dose-only effect, or effect the other way; inactive = flat fitted curve, though single readings scatter.
Measured endpoint: activity change, negative = cytotoxicity

| Molecule | Measured endpoint | Result |
| --- | --- | --- |
| COC1=CC(=O)O/C1=C(/OC)[C@@H]1O[C@H]1c1ccccc1 | activity change, negative = cytotoxicity | inactive |
| CCCOc1ccc(S(=O)(=O)N2CCN(CCO)CC2)cc1-c1nc2c(CCC)cn(CC)c2c(=O)[nH]1 | activity change, negative = cytotoxicity | inactive |
| Cc1noc(-c2ccc(-c3ccc(CC(=O)O)cc3)cc2)c1NC(=O)O[C@H](C)c1ccccc1Cl | activity change, negative = cytotoxicity | inactive |
| COCC(c1ccc(C(F)(F)F)cc1)N1CCN(C2(C)CCN(C(=O)c3c(C)ncnc3C)CC2)CC1C (centres undefined) | activity change, negative = cytotoxicity | inactive |
| Cc1c(C(=O)NCc2cccnc2)nn(-c2ccc(Cl)cc2Cl)c1-c1ccc(Cl)cc1 | activity change, negative = cytotoxicity | inactive |
| COC1CCN(c2cccc(-c3cc(NC(C)=O)nc(-n4nc(C)cc4C)n3)n2)CC1 | activity change, negative = cytotoxicity | inactive |
| OC(c1ccc(-c2ccc(CN3CCN(Cc4ccncc4)CC3)cc2)c(F)c1)(C(F)(F)F)C(F)(F)F | activity change, negative = cytotoxicity | inactive |
| COc1cccc(CN(C(=O)CC(C)(C)C)[C@H]2C[C@H](C(=O)N3CCNCC3)N(Cc3ccc4c(c3)OCO4)C2)c1 | activity change, negative = cytotoxicity | inactive |
| CC(C)Nc1nc(Nc2ccccc2)nc(-c2ccccc2)n1 | activity change, negative = cytotoxicity | inactive |

###

Catalogue of compounds with associated activity change, negative = inhibition
target: Guanidinoacetate N-methyltransferase (Homo sapiens) (UniProt Q14353); test: Confirmatory Screen for Target Class Profiling of Small Molecule Inhibitors of Methyltransferases (AID 1745852); conditions: MTase-Glo luminescence, SAH detection, recombinant enzyme; at 57.3 µM (top of the series) unless noted; note: % is set by controls: 0 for no effect and ±100 for the full control effect
Measured endpoint: activity change, negative = inhibition (%)

| Compound | Measured on | Measured number |
| --- | --- | --- |
| C=CC(=O)Nc1ccc(CN2C(=O)N(c3cc(OC)cc(OC)c3)Cc3cnc(Nc4ccc(N5CCN(C)CC5)cc4)nc32)cc1 | Guanidinoacetate N-methyltransferase (Homo sapiens) (UniProt Q14353) | -0.849 |
| C[C@H](Nc1cc2c(-c3ccc4c(c3)OCO4)noc2cn1)c1ccccc1 | Guanidinoacetate N-methyltransferase (Homo sapiens) (UniProt Q14353) | -10.4 |
| Cc1cc(NC(=O)NCCN2CCC(O)(Cc3ccccc3)CC2)c2ccccc2n1 | Guanidinoacetate N-methyltransferase (Homo sapiens) (UniProt Q14353) | 0 |
| Cc1c(OCc2cccc(-c3ccc(C(=O)O)cc3)c2)cc2c(c1C)C(=O)C(C1CCCC1)C2 (centres undefined) | Guanidinoacetate N-methyltransferase (Homo sapiens) (UniProt Q14353) | -6.27 |
| COc1ccccc1N1CCN(c2ncnc3n[nH]c(Br)c23)CC1 | Guanidinoacetate N-methyltransferase (Homo sapiens) (UniProt Q14353) | -0.635 |
| COc1cc2c(cc1-c1c(C)noc1C)ncc1[nH]c(=O)n(C(C)c3ccccn3)c12 (centres undefined) | Guanidinoacetate N-methyltransferase (Homo sapiens) (UniProt Q14353) | 3.12 |
| CC1(C)CCC(C)(C)c2cc(C#Cc3ccc(C(=O)O)cc3)ccc21 | Guanidinoacetate N-methyltransferase (Homo sapiens) (UniProt Q14353) | 0 |
| O=C(NCCCNc1nc(Nc2cccc(CN3CCOCC3)c2)ncc1C1CC1)C1CCC1 | Guanidinoacetate N-methyltransferase (Homo sapiens) (UniProt Q14353) | 0 |

###

assay: Primary qHTS for inhibitors of nuclear receptor binding SET domain protein 2 (NSD2) in an RCH-ACV wild type WT cells (2C) (AID 1645877); conditions: RCH-ACV (leukaemia line) NSD2 WT (2C) viability, CellTiter-Glo, 72 h; series mostly up to 44.9 µM; note: nearly all actives have a fitted effect of over 70% in size
Inconclusive results are not listed. Active and inactive are the calls of the source. Calls follow the shape of the dose curve; as a rule, active = well fitted inhibition curve with a large enough effect; inconclusive = small, poorly fitted or top-dose-only effect; inactive = no such curve, though single readings can be large or run the other way.
Classes used: active, inactive

| Compound | Group label |
| --- | --- |
| CCN(CC)CCCCCCNc1cc(OC)cc2c(C)ccnc12 | active |
| CC1CCCC[C@H]2C(=O)C=C[C@H](O)[C@@H]2CC(=O)O1 (stereo not given in full) | active |
| C/C1=C/CCC2=CC(OC2=O)C(C)(C)/C=C/C1=O (stereo not given) | active |
| CN1CCN(C2=Nc3ccccc3Nc3ccc(OS(=O)(=O)C(F)(F)F)cc32)CC1 | active |
| CCCCC1CCC(c2nc(-c3ccncc3)no2)CC1 (stereo not given) | inactive |
| CC(C)C[C@@H]1NC(=O)[C@@H]2C[C@@]34C[C@@H]5[C@@]6(C)CCCC(C)(C)C6CC[C@@]5(C)N(c5ccccc53)[C@H]4N2C1=O (stereo not given in full) | active |
| O=C(NCCCc1ccccc1)c1cccc(-c2cc(O)c3ncccc3c2)c1 | active |
| C=C[C@](C)(O)CC[C@H]1C(C)=CC(=O)[C@H]2C(C)(C)CCC[C@]12C | active |
| Cc1ccc(-c2c(C(=O)CCl)n(CCCO)c3ncnc(N)c23)cc1 | active |
| Nc1c(S(=O)(=O)c2ccccc2)c2nc3ccccc3nc2n1-c1ccc(F)cc1 | inactive |
| O=C(Nc1ccc(Cl)cc1)c1ccccc1NCc1ccncc1 | active |
| CCC(C)CNCC(=O)N1CCC2SC=CC2C1COc1cccc(C)c1 (stereo not given) | active |
| C=C1C(=O)O[C@@H]2[C@H]1CC(=O)[C@H](C)[C@@](O)(C(=O)/C=C/C)[C@H]2OC(=O)C(C)CC (stereo not given in full) | active |
| O=C(c1ccccn1)N(Cc1cccs1)C1(C(=O)NC2CCCCC2)CCCCC1 | inactive |
| COC(CCc1ccc(O)cc1)CC(=O)CCc1ccc(O)cc1 (stereo not given) | active |
| CC(=O)O[C@]1(C(C)=O)CC[C@H]2[C@@H]3CCC4=CC(=O)CCC4=C3[C@@H](c3ccc(N(C)C)cc3)C[C@@]21C | active |
| CCCCOC(=O)NS(=O)(=O)c1sc(CC(C)C)cc1-c1ccc(Cn2ccnc2)cc1 | active |
| C=C1CC[C@@H](O)[C@]2(C)C[C@H]3OC(=O)C(=C)[C@H]3CC12 (stereo not given in full) | active |
| C=C1C(=O)O[C@@H]2C[C@H](C)[C@@H]3CC(=O)[C@H](O)[C@@]3(C)C[C@H]12 | active |
| CN(C)CCOC(C)(c1ccccc1)c1ccc(Cl)cc1 (stereo not given) | active |

###

assay: Primary fluorescence-based thiol-reactive (MSTI) qHTS assay for identification of artifact compounds. (AID 1845221); settings: MSTI thiol-reactivity probe, 1 h; series mostly up to 53.8 µM; note: nearly all actives have a fitted effect of over 65% in size
Inconclusive results are not listed. Activity calls are given as the source filed them. The call rests on the fitted dose curve; in most records, active means well fitted inhibition curve with a large enough effect; inconclusive means small, poorly fitted or top-dose-only effect; inactive means no such curve, though single readings can be large or run the other way.
Classes used: active, inactive

| Molecule | Group label |
| --- | --- |
| Cc1c(NC(=O)OCC2COCCN2)cn2ncnc(Nc3ccc4c(cnn4Cc4cccc(F)c4)c3)c12 (stereo not given) | inactive |
| C[C@@H]1CCCN1CCc1cc2cc(-c3ccc(C#N)cc3)ccc2o1 | inactive |
| COc1ccc2nccc(C(=O)CC[C@@H]3CCN(CC#Cc4cc(F)cc(F)c4F)C[C@@H]3C(=O)O)c2c1 | inactive |
| C1=Cc2ccccc2C(=C2CCN(CCCCc3nn[nH]n3)CC2)c2ccccc21 | inactive |
| O=C(N[C@@H]1CCCc2c1cnn2-c1ccc(F)cc1F)c1ccccn1 | inactive |
| CCCCC1CCN(CCCN2C(=O)CCc3ccccc32)CC1 | inactive |
| COc1ccc(-c2cc3onc(-c4ccncc4)c3c(=O)n2C)cc1 | inactive |
| COc1c(F)cccc1C(=O)N1C[C@@H](C)CC[C@H]1CNc1ccc(Br)cn1 | inactive |
| C=C(CCC1C(C)(O)CCC2C(C)(C)C(O)CCC12C)C(O)CO (stereo not given) | active |
| COc1ccc2[nH]c(=O)c3c(c2c1)OC(C)(C)C=C3 | inactive |
| Cc1cc(OCCCS(C)(=O)=O)cc(C)c1-c1cccc(COc2ccc(C3=CC(=O)NS3=O)cc2)c1 (stereo not given) | inactive |
| CC(C)(Cc1nc(-c2ccc(O)cn2)no1)C(=O)NC1=C(C(=O)O)CCCC1 | inactive |
| COc1ccncc1C(=O)NC(=O)Nc1ccc(-c2ccccc2)c(C(F)(F)F)c1 | inactive |
| O=S(=O)(NCc1cccc2ccccc12)c1cc(Cl)c(Oc2cccc(N3CCNCC3)c2)s1 | inactive |
| CCCc1cc(C)[nH]c(=O)c1CNC(=O)c1cc(-c2ccnc(N3CCN(C)CC3)c2)cc2c1cnn2C(C)C | inactive |
| CCCCOC(=O)NS(=O)(=O)c1sc(CC(C)C)cc1-c1ccc(Cn2ccnc2)cc1 | inactive |
| O=C(NCc1nc2ccccc2c(=O)n1-c1ccc(F)cc1)Nc1ccc(Cl)c(C(F)(F)F)c1 | inactive |
| C=C1CCC2C(C)(C)CCCC2(C)C1CC/C(C)=C\CO (stereo not given) | inactive |
| CC(C)Oc1ccc(-c2cnc3c(-c4ccnc5ccccc45)cnn3c2)cc1 | inactive |
| C=C(C)C1CC(O)C(C)C12CC(O)C1(C)OC1C2O (stereo not given) | inactive |
| CCC[C@H](N[C@H]1CCc2cc(F)cc(F)c2C1)C(=O)Nc1cn(C(C)(C)CNCC(C)(C)C)cn1 | inactive |
| COc1cc2c(cc1NS(=O)(=O)c1ccc(Br)cc1C)n(C)c(=O)n2C | inactive |
| CC(C)=CCCC1(C)/C=C/C(OC(=O)C=C(C)C)C(C)(O)/C=C/C(=O)/C(CO)=C\C1 (stereo not given) | inactive |
| O=C(O)c1cc(N(Cc2ccc(C3CCCCC3)cc2)C(=O)c2ccc(Oc3ccccc3)cc2)ccc1O | inactive |
| CC1CCCC(O)CCC/C=C/c2cc(OS(=O)(=O)O)cc(O)c2C(=O)O1 (stereo not given) | inactive |
